- Test system: cultured astrocytes
- protocol.details: Glutamate uptake in cultured astrocytes
- Type: cell-based, rat
- reported.conditions: Rattus norvegicus, Astrocyte, cultured rat astrocytes, 50 nM 3H-L-glutamate; read-out: potency (EC50) of glutamate uptake enhancement in cultured astrocytes
measurement.name: EC50 (nM)
Unit nM implied. Number only.

The observed EC50 for COc1ccc2[nH]c(=O)c(C(c3nnnn3CCc3ccccc3)N3CCN(c4cccc(C(F)(F)F)c4)CC3)cc2c1 (stereo not shown) when tested with cultured astrocytes stands at 0.3

###

- tested.on: EAAT2 (Homo sapiens)
- Construct: expressed in transfected cells; host or cells: COS-7
- protocol.details: Dose-response glutamate uptake in COS-7 cells transfected with EAAT2
- Type: cell-based
- reported.conditions: COS-7 cells expressing EAAT2
- Method: COS-7 cells were maintained in DMEM with 10% fetal calf serum under 5% CO2. Transfection with empty vector pCMV-5 was used to control for the level of endogenous uptake of radiolabeled substrate in each experimental condition. […] All reactions were carried out for 10 min; then, uptake was terminated by removal of solution, followed by two washes with PBSCM. […] For 96-well plates, scintillation fluid was added to each well, and the plate was counted in a Wallac M50 microbeta scintillation analyzer.
measurement.name: kind of modulation of EAAT2 glutamate uptake in dose-response assays

Illustrative cases are given below, each with its answer.
1. C=CCN1CC(c2nc3ccccc3n2CCCCOc2ccc(C)c(C)c2)CC1=O (centres unmarked) : inhibitors
2. O=C(c1ccc(S(=O)(=O)N2CCCC2)cc1)N1CCN(c2nc(-c3ccccc3)nc3sc4c(c23)CCC4)CC1 : no effect
3. Cc1ccc(C)c2[nH]c(=O)c(C(c3nnnn3CCc3ccccc3)N3CCN(Cc4ccc5c(c4)OCO5)CC3)cc12 (centres unmarked) : no effect
4. C=CCN1CC(c2nc3ccccc3n2CCCOc2ccc(C(C)CC)cc2)CC1=O (centres unmarked) : inhibitors

Alright, here's another compound for you.
Noted for C=CCN1CC(c2nc3ccccc3n2CCCCOc2ccc(Cl)c(C)c2)CC1=O (centres unmarked) : its kind of modulation of EAAT2 glutamate uptake in dose-response assays reads PAMs

###

- tested.on: UniProt P43004
- protocol.details: Dose-response glutamate uptake in COS-7 cells transfected with EAAT2
- reported.conditions: COS-7 cells transfected with EAAT2; compound 10 min 37 °C, 50 nM 3H-L-glutamate; mean±SEM; read-out: EC50 (ED50) of enhancement of EAAT2-mediated glutamate transport
measurement.name: EC50 (nM)
Unit nM implied. Number only.

The observed EC50 for C=CCN1CC(c2nc3ccccc3n2CCCCOc2ccc(Cl)c(C)c2)CC1=O (stereo not shown) when tested with UniProt P43004 stands at 0.7
